In this section, each of the sequences is paired with its reported PBM binding z-score.
System: THRa homodimer (NR concentration 90 nM)
Experiment: PBM binding z-score (relative to random genomic background probes); higher = stronger binding; sequences stand for … in GC…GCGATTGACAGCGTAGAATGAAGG
In your answer, state the number alone without any accompanying words.

Examples with answers:
1. ATATGTAGGTTATCGGGCCATTCAGTTTGCGCAT | 0.971
2. TGAATTAGGTTAAAGATCAGGGAACGTGGCGTCG | 0.0277
3. CGTCCAAGGTCAAAGGTCTGTGAAGAGATGACGG | 2.11
4. TAGCCTAGGTCATTCAGCGGCCAGTATAGAAAGC | 0.53
5. CCTCGGAGGACAACAGGGGGTCAGAGCTGCCAGA | 1.04

Task: Can you share its PBM binding z-score? I mean this sequence: CGAACTAGGTCATTGACCGGACAGTGAATAGTAA
Result: 0.878

Task: What PBM binding z-score value was documented for this sequence, CCTTACGGGTCACTGACAGGTGATAGCATTTGGA ?
Result: 0.557

Task: // query PBM binding z-score value for entry CGTCCAAGGTCAGAGCGGTCAGTGAATGCCGAGT
Result: 1.54

Task: Entry CAAACTGGGTCACCGGAAGGTCAAAGTCCGCATG has what PBM binding z-score?
Result: 1.61

Task: What value of PBM binding z-score has been reported for the following sequence? CATACAGGGTGAGCTAGGCCAGAGTAGGGACGGC
Result: 0.182

Task: Item ATCGAAAGGTCGTGCGGTGAGTATACAGAAAGGC has what recorded PBM binding z-score?
Result: -0.0433

Task: Need PBM binding z-score, item TCTCGGGGGACACGAAGGTCAGAGCTTTCCAGAG
Result: 1.58

Task: So what's the measured PBM binding z-score for this one? AGAATGAGGTTATTCAGATCAGGGAATTGCGGTC
Result: 0.965

Task: Name the recorded PBM binding z-score for ACTAGCAGGCCAAGGGTCACTCATGATTAGTCCG .
Result: 0.0224

Task: Which PBM binding z-score is reported for this sequence? AGAATGAGGTTATACGTAGATCAGGTAAGAAAGT
Result: 1.01

Task: Using the record for ACAGACAGGTGATTGAAGGTAACTCAGCTGGACG , report its PBM binding z-score.
Result: -0.247

###

System: LXRa homodimer (NR concentration 270 nM)
Test: PBM binding z-score (relative to random genomic background probes); higher = stronger binding; sequences stand for … in GC…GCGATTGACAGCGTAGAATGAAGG
MEASUREMENT_KIND: PBM binding z-score
Field format: numeric only.

1) TCGAGTAGGTTACCAATGGGGCATTCAGCTTTCT | -0.798
2) TCTAGTTGGTCACGGAGGTCACATACGACGGGTA | 2.47
3) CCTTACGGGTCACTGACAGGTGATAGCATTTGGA | 0.411
4) TCTTGTAGATCAATCAGGTTAAGAAAGCCTGAGT | 0.00408
5) CCTTACGGGTCACTCCAGGTTATAGCTTCGGAGT | 1.7

Task: Given CCTCGGAGGACAACAGGAGGTCGGAGCTGCCAGA , state its recorded PBM binding z-score.
Result: -0.149

Task: # input sequence: ATATGTAGGTTACATCCGGGCCATTCAGGCTATG ; wanted: its PBM binding z-score
Result: 0.422

Task: So what's the measured PBM binding z-score for this one? TCTGCTAGGGCAACGATGGTCAGCTAATCTGCTA
Result: -0.78

###

Tested on: RARb:RXRa (NR concentration 270 nM, RXRa partner concentration 90 nM)
Assay: PBM binding z-score (relative to random genomic background probes); higher = stronger binding; sequences stand for … in GC…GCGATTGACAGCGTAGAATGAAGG
MEASUREMENT_KIND: PBM binding z-score
I'd appreciate a reply containing only the number, no unit.

Task: Please report the recorded PBM binding z-score for TCTTGTACATCAATAGAGGTTAAGAAAGTGCGCT .
Result: 1.08

Task: State the recorded PBM binding z-score for this entry: GGAACGCGGGCAAGTTGATAGCAGAGTTTGATGG
Result: 0.294

###

System: PPARg DBDmut:RXRa IVT, anti-PPARg (DBD mutation: PPARg1 K132A/R137A, NR concentration 270 nM, RXRa partner concentration 90 nM)
Assay: PBM binding z-score (relative to random genomic background probes); higher = stronger binding; sequences stand for … in GC…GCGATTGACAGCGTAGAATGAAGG
# if value of PBM binding z-score reaches 0.4, tag criterion met; if it stays below, tag criterion not met

Here are 5 sequences together with their reported answers.
1. AGTCAAAGTTCACTACGTAACGTAAGATTCAGCT | criterion met
2. GGAACGAGGGCATTCGAGTTGATTGCATGGCGAT | criterion not met
3. TTACCAAGGTGAAGGTAGTTGATCCCTCTGTAGA | criterion not met
4. CCTCGGAGGGCAGAAGGTCAGAGCTGTCCGCTTT | criterion not met
5. TCTATGAGTTGAAGGGCAACCGACGAGTCCGTTT | criterion not met

Continue with the sequence presented below.
Task: Hello, I need to know if GCAGACAGGTGAAACGCAGGTAACTCCGGGTGGC has measured PBM binding z-score not below 0.4. Thanks!
Result: criterion met

###

Tested on: VDR homodimer (NR concentration 270 nM)
Assay: PBM binding z-score (relative to random genomic background probes); higher = stronger binding; sequences stand for … in GC…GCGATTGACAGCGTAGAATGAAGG
MEASUREMENT_KIND: PBM binding z-score

Task: I would be grateful if you could share the reported PBM binding z-score for GATACAGGGCCAGCTAGAGGCCAGAGTATGGAAA .
Result: -0.246

Task: Could you tell me which PBM binding z-score is on file for ATATGTAGGTTAGCTGGGGTCAGTCAGACTAGGC ?
Result: 2.29

Task: What does the data say about its PBM binding z-score? Entry: TTTATTAGTTGATTAGGGCAACCGAAACAGCGGA
Result: 0.951

Task: Suppose we examine the sequence TCATATAGGTAATACAGGTGACAGTCGGCATCTA ; what PBM binding z-score value has been reported?
Result: -0.0475

Task: What does the record list as PBM binding z-score for TCTTGTAGGTCAACAGGAGGTTAAGAAAGATCGA ?
Result: 0.658

###

Tested on: PPARg:RXRa 30nM:10nM, anti-RXR (NR concentration 30 nM, RXRa partner concentration 10 nM)
Assay: PBM binding z-score (relative to random genomic background probes); higher = stronger binding; sequences stand for … in GC…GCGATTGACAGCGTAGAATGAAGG
Decision: PBM binding z-score >= 0.2 yields y, all other cases yield n.

1. TCGCCTAGGTCATTGGGCCAGTATAGTACGCATC | y
2. CCTCGGAGGACAGAAGGACAGAGCTGTCCGCTTT | n
3. CCGACTGGGGCAAAGTTTACCATACTCAGTACGA | y
4. TCATATAGGTAAAAGGTGAAACTCGGTGTGGTAA | y
5. CCAGCCAGGTGAGAAGGTAACTCAGCCTCGATTA | n
6. ACTTACGGGTCAACGAGGTTATAGCACGCGTATA | y

Task: Can TCATATAGATAAAGGTGAAAGTCGAACGATATGA be said to have PBM binding z-score at or above 0.2?
Result: y

Task: Is it the case that AGAATGAGGTTAGTAAGATCAGGGAATTGCGGTC has PBM binding z-score reaching or exceeding 0.2?
Result: n

###

PBM binding z-score listing for selected sequences.
Tested on: LXRa:RXRa (NR concentration 270 nM, RXRa partner concentration 90 nM)
Assay: PBM binding z-score (relative to random genomic background probes); higher = stronger binding; sequences stand for … in GC…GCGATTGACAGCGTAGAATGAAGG
Reply with just the number.

These recorded examples may help you get a feel for the data.
1. TCTATTATTTGAAGGGCAACCGACGAGTCCGTTT | 1.55
2. TCATATAGGTTAATGCTAGGTGAAAGTCCGATCT | 2.25
3. ATATGTAGGTTTGCTGGGGTCATTCAGACTAGGC | 3.85

Turning now to a further record.
Task: Reported PBM binding z-score for TCTTGTAGATCAAGTAGGTTAAGAAAGCCTGAGT : what is it?
Result: 0.521

###

Tested on: RXRa homodimer (NR concentration 180 nM)
Assay: PBM binding z-score (relative to random genomic background probes); higher = stronger binding; sequences stand for … in GC…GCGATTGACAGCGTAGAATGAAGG
The label depends only on PBM binding z-score: yes (1) if it is at least 0.7, no (0) if it is smaller.

Would you please look over these solved cases?
1) TCTTGTAGATCAACAGGAGGTTACGAAAGATCGA | yes (1)
2) AGAATGAGGTTATACGTAGATCAGGGAGGAAAGT | yes (1)
3) GCTAGATGGTCAGTAAAAGGTCACACACCGGTCG | yes (1)

Task: Hi team, for AGAGTGAGGTTATACGTAGATCAGGGAAGAAAGT , is the recorded PBM binding z-score at or above 0.7?
Result: yes (1)

Task: For this sequence, is measured PBM binding z-score 0.7 or higher? CCAGGCAGGTGAGAAGGTAACTCAGCCTCGATTA
Result: no (0)

Task: Does CCTCGTTGGTCAAGGTCACACACGCTATAGGTAC have a reported PBM binding z-score of at least 0.7?
Result: yes (1)

Task: Is the recorded value of PBM binding z-score equal to or greater than 0.7 for this sequence? TCATATAGGTAAAGGAGAAAGTCGAACGATATGA
Result: no (0)

Task: Textbook exercise: given the entry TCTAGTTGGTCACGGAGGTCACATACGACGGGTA , state whether its PBM binding z-score is greater than or equal to 0.7.
Result: yes (1)

Task: Given GATGCAGGGTCAGCTAGAGGCCAGAGTATGGAAA , state whether its PBM binding z-score is at least 0.7.
Result: yes (1)

Task: Identify whether the reported PBM binding z-score of the following sequence is 0.7 or greater: CCTACTGGGCCATGAGGTCATTGATATCAACGTT
Result: yes (1)

Task: Kindly determine if PBM binding z-score recorded for TCGAGAAGGTTAGTCGGGGCATTCAGCCAACATA is above or exactly 0.7.
Result: no (0)

Numbers sourced from the supplement of paper PMC6555819.
